Catalogue of compounds with associated relative viability
System: PC-14
Protocol Text: relative viability (nuclei count vs DMSO), 5 days (fraction); higher = more cells survive
Protocol Conditions: first compound 0.01 µM

{"Compound": "Cc1cn(-c2cc(NC(=O)c3ccc(C)c(Nc4nccc(-c5cccnc5)n4)c3)cc(C(F)(F)F)c2)cn1 [Nilotinib] + NC(=O)Nc1cc(-c2cccc(F)c2)sc1C(=O)N[C@H]1CCCNC1 [AZD7762] (partner 0.2 µM)", "relative viability": 0.399}
{"Compound": "Cc1cn(-c2cc(NC(=O)c3ccc(C)c(Nc4nccc(-c5cccnc5)n4)c3)cc(C(F)(F)F)c2)cn1 [Nilotinib] + Cc1cc(Nc2cc(N3CCN(C)CC3)nc(Sc3ccc(NC(=O)C4CC4)cc3)n2)n[nH]1 [Tozasertib] (partner 0.1 µM)", "relative viability": 0.53}

* * *

Test system: NCI-H3122
Protocol Text: relative viability (nuclei count vs DMSO), 5 days (fraction); higher = more cells survive
Protocol Conditions: first compound 0.2 µM

{"Compound": "Cc1csc(=NC2CCCCC2)n1/N=C/c1ccc(O)c(O)c1O [MIM1] + Cc1nc(NC(=O)N2CCC[C@H]2C(N)=O)sc1-c1ccnc(C(C)(C)C(F)(F)F)c1 [Alpelisib] (partner 2 µM)", "relative viability": 0.825}
{"Compound": "Cc1csc(=NC2CCCCC2)n1/N=C/c1ccc(O)c(O)c1O [MIM1] + CC1(C)CCC(c2ccc(Cl)cc2)=C(CN2CCN(c3ccc(C(=O)NS(=O)(=O)c4ccc(N[C@H](CCN5CCOCC5)CSc5ccccc5)c(S(=O)(=O)C(F)(F)F)c4)cc3)CC2)C1 [Navitoclax] (partner 0.5 µM)", "relative viability": 1.06}

* * *

System: HCC-366
Protocol Text: relative viability (nuclei count vs DMSO), 5 days (fraction); higher = more cells survive
Protocol Conditions: first compound 0.6325 µM
Rule for this label: Yes means relative viability is less than 0.2; No means relative viability is at least 0.2.

{"Compound": "CN1CCN(CCOc2cc(OC3CCOCC3)c3c(Nc4c(Cl)ccc5c4OCO5)ncnc3c2)CC1 [Saracatinib] + CC(=O)c1c(C)c2cnc(Nc3ccc(N4CCNCC4)cn3)nc2n(C2CCCC2)c1=O [Palbociclib] (partner 0.5 µM)", "Label": "No"}
{"Compound": "CN1CCN(CCOc2cc(OC3CCOCC3)c3c(Nc4c(Cl)ccc5c4OCO5)ncnc3c2)CC1 [Saracatinib] + CS(=O)(=O)N1CCN(Cc2cc3nc(-c4cccc5[nH]ncc45)nc(N4CCOCC4)c3s2)CC1 [Pictilisib] (partner 1 µM)", "Label": "Yes"}
{"Compound": "Cc1csc(=NC2CCCCC2)n1/N=C/c1ccc(O)c(O)c1O [MIM1] + C[C@@H](Oc1cc(-c2cnn(C3CCNCC3)c2)cnc1N)c1c(Cl)ccc(F)c1Cl [Crizotinib] (partner 1 µM)", "Label": "No"}
{"Compound": "CN1CCN(CCOc2cc(OC3CCOCC3)c3c(Nc4c(Cl)ccc5c4OCO5)ncnc3c2)CC1 [Saracatinib] + COc1cc2c(Oc3ccc(NC(=O)C4(C(=O)Nc5ccc(F)cc5)CC4)cc3F)ccnc2cc1OCCCN1CCOCC1 [Foretinib] (partner 0.25 µM)", "Label": "No"}
{"Compound": "Cc1csc(=NC2CCCCC2)n1/N=C/c1ccc(O)c(O)c1O [MIM1] + CS(=O)(=O)CCNCc1ccc(-c2ccc3ncnc(Nc4ccc(OCc5cccc(F)c5)c(Cl)c4)c3c2)o1 [Lapatinib] (partner 2 µM)", "Label": "No"}
{"Compound": "CN1CCN(CCOc2cc(OC3CCOCC3)c3c(Nc4c(Cl)ccc5c4OCO5)ncnc3c2)CC1 [Saracatinib] + NC(=O)Nc1cc(-c2cccc(F)c2)sc1C(=O)N[C@H]1CCCNC1 [AZD7762] (partner 0.2 µM)", "Label": "No"}
{"Compound": "Cc1csc(=NC2CCCCC2)n1/N=C/c1ccc(O)c(O)c1O [MIM1] + CS(=O)(=O)N1CCN(Cc2cc3nc(-c4cccc5[nH]ncc45)nc(N4CCOCC4)c3s2)CC1 [Pictilisib] (partner 1 µM)", "Label": "Yes"}

* * *

Test system: NCI-H2405
Protocol Text: relative viability (nuclei count vs DMSO), 5 days (fraction); higher = more cells survive
Protocol Conditions: first compound 0.03162 µM
In this section we review reported relative viability values for a set of molecules.

{"Molecule": "Cc1cn(-c2cc(NC(=O)c3ccc(C)c(Nc4nccc(-c5cccnc5)n4)c3)cc(C(F)(F)F)c2)cn1 [Nilotinib] + Cc1nc(Nc2ncc(C(=O)Nc3c(C)cccc3Cl)s2)cc(N2CCN(CCO)CC2)n1 [Dasatinib] (partner 0.075 µM)", "relative viability": 0.221}
{"Molecule": "Cc1cn(-c2cc(NC(=O)c3ccc(C)c(Nc4nccc(-c5cccnc5)n4)c3)cc(C(F)(F)F)c2)cn1 [Nilotinib] + CC(=O)c1c(C)c2cnc(Nc3ccc(N4CCNCC4)cn3)nc2n(C2CCCC2)c1=O [Palbociclib] (partner 0.5 µM)", "relative viability": 0.467}
{"Molecule": "Cc1cn(-c2cc(NC(=O)c3ccc(C)c(Nc4nccc(-c5cccnc5)n4)c3)cc(C(F)(F)F)c2)cn1 [Nilotinib] + CCNC(=O)c1noc(-c2cc(C(C)C)c(O)cc2O)c1-c1ccc(CN2CCOCC2)cc1 [Luminespib] (partner 0.01 µM)", "relative viability": 0.448}
{"Molecule": "Cc1cn(-c2cc(NC(=O)c3ccc(C)c(Nc4nccc(-c5cccnc5)n4)c3)cc(C(F)(F)F)c2)cn1 [Nilotinib] + C[C@@H](Oc1cc(-c2cnn(C3CCNCC3)c2)cnc1N)c1c(Cl)ccc(F)c1Cl [Crizotinib] (partner 1 µM)", "relative viability": 0.747}

* * *

Entries and their relative viability values follow.
Test system: NCI-H1944
Protocol Text: relative viability (nuclei count vs DMSO), 5 days (fraction); higher = more cells survive
Protocol Conditions: first compound 0.253 µM

{"Compound": "Nc1cccc2c1CN(C1CCC(=O)NC1=O)C2=O (stereo not drawn) [Lenalidomide] + Cc1nc(NC(=O)N2CCC[C@H]2C(N)=O)sc1-c1ccnc(C(C)(C)C(F)(F)F)c1 [Alpelisib] (partner 2 µM)", "relative viability": 0.885}
{"Compound": "Nc1cccc2c1CN(C1CCC(=O)NC1=O)C2=O (stereo not drawn) [Lenalidomide] + COc1cccc2cc(-c3nc([C@H]4CC[C@H](C(=O)O)CC4)n4ncnc(N)c34)[nH]c12 [OSI-027] (partner 0.5 µM)", "relative viability": 0.412}
{"Compound": "Nc1cccc2c1CN(C1CCC(=O)NC1=O)C2=O (stereo not drawn) [Lenalidomide] + CCNC(=O)c1noc(-c2cc(C(C)C)c(O)cc2O)c1-c1ccc(CN2CCOCC2)cc1 [Luminespib] (partner 0.01 µM)", "relative viability": 0.675}

* * *

Test system: NCI-H838
Protocol Text: relative viability (nuclei count vs DMSO), 5 days (fraction); higher = more cells survive
Protocol Conditions: first compound 6.325 µM

{"Compound": "Cc1csc(=NC2CCCCC2)n1/N=C/c1ccc(O)c(O)c1O [MIM1] + Nc1ncn([C@H]2C[C@H](O)[C@@H](CO)O2)c(=O)n1 [Decitabine] (partner 2 µM)", "relative viability": 0.394}
{"Compound": "Cc1csc(=NC2CCCCC2)n1/N=C/c1ccc(O)c(O)c1O [MIM1] + Cc1nc(NC(=O)N2CCC[C@H]2C(N)=O)sc1-c1ccnc(C(C)(C)C(F)(F)F)c1 [Alpelisib] (partner 2 µM)", "relative viability": 0.827}
{"Compound": "Cc1csc(=NC2CCCCC2)n1/N=C/c1ccc(O)c(O)c1O [MIM1] + Cc1nc(Nc2ncc(C(=O)Nc3c(C)cccc3Cl)s2)cc(N2CCN(CCO)CC2)n1 [Dasatinib] (partner 0.075 µM)", "relative viability": 0.314}
{"Compound": "Cc1csc(=NC2CCCCC2)n1/N=C/c1ccc(O)c(O)c1O [MIM1] + Nc1nc2[nH]cc(CCc3ccc(C(=O)N[C@@H](CCC(=O)O)C(=O)O)cc3)c2c(=O)[nH]1 [Pemetrexed] (partner 0.2 µM)", "relative viability": 0.269}
{"Compound": "Cc1csc(=NC2CCCCC2)n1/N=C/c1ccc(O)c(O)c1O [MIM1] + COc1cc2c(Oc3ccc(NC(=O)C4(C(=O)Nc5ccc(F)cc5)CC4)cc3F)ccnc2cc1OCCCN1CCOCC1 [Foretinib] (partner 0.25 µM)", "relative viability": 0.853}

* * *

System: NCI-H1395
Protocol Text: relative viability (nuclei count vs DMSO), 5 days (fraction); higher = more cells survive
Protocol Conditions: first compound 2 µM

{"Compound": "CN1CCN(CCOc2cc(OC3CCOCC3)c3c(Nc4c(Cl)ccc5c4OCO5)ncnc3c2)CC1 [Saracatinib] + Nc1ncn([C@H]2C[C@H](O)[C@@H](CO)O2)c(=O)n1 [Decitabine] (partner 2 µM)", "relative viability": 0.635}
{"Compound": "CN1CCN(CCOc2cc(OC3CCOCC3)c3c(Nc4c(Cl)ccc5c4OCO5)ncnc3c2)CC1 [Saracatinib] + CS(=O)(=O)CCNCc1ccc(-c2ccc3ncnc(Nc4ccc(OCc5cccc(F)c5)c(Cl)c4)c3c2)o1 [Lapatinib] (partner 2 µM)", "relative viability": 0.733}
